# tested_on: TLR7 (Homo sapiens, UniProt Q9NYK1)
# Construct: Fresh blood was collected from normal human donors; endogenous in cells
# Sequence (Q9NYK1 27-1049): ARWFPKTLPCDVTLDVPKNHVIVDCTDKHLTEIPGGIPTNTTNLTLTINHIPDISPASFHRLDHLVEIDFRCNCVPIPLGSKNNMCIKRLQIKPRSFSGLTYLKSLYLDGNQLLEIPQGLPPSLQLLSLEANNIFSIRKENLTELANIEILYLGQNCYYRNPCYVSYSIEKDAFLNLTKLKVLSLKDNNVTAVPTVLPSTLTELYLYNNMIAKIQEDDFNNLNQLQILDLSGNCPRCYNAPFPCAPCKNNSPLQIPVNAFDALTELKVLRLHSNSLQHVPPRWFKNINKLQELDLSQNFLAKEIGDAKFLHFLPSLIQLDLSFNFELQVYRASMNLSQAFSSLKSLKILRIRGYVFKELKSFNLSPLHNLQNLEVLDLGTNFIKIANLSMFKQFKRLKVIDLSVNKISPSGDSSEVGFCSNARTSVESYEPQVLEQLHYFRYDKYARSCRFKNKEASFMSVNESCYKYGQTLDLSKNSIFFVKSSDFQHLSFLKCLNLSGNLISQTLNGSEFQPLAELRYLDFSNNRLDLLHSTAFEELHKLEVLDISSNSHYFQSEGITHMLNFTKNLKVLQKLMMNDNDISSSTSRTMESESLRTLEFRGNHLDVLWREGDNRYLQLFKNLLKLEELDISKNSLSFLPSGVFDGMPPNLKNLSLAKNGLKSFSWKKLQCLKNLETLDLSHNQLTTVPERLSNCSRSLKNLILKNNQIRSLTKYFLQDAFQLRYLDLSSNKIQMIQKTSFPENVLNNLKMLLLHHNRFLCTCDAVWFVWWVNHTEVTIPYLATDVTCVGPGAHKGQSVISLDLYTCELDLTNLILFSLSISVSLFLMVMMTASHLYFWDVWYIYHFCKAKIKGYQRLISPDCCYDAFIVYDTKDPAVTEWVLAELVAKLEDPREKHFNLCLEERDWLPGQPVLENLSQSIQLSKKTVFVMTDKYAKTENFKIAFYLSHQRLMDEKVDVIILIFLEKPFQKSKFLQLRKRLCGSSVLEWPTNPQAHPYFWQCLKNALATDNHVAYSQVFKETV
# assay_info: huPBMC TLR7 Antagonist IFNα Assay
# run_conditions: human PBMCs stimulated with ssRNA40 10 μg/mL (DOTAP), 14-16 hrs; IFNα2b AlphaLISA read-out
readout: IC50 (nM)

smiles_str: Cc1cc(N2CCc3c(c(C)nn3CC34CCC(NCC(=O)N5CCCCC5)(CC3)CC4)C2)c2cnn(C)c2n1
measure_unit: nM
IC50: 40
//
smiles_str: Cc1cc(N2CCc3c(c(C)nn3CC34CCC(N5C[C@H](C)O[C@@H](C)C5)(CC3)CC4)C2)c2cnn(C)c2n1
measure_unit: nM
IC50: 28
//
smiles_str: CCOCCN(CCOCC)C12CCC(Cn3nc(C)c4c3CCN(c3cc(C)nc5c3cnn5C)C4)(CC1)CC2
measure_unit: nM
IC50: 37

----------
# tested_on: TLR9 (Homo sapiens)
# Construct: Fresh blood was collected from normal human donors; endogenous in cells
# assay_info: huPBMC TLR9 Antagonist IFNα Assay
# run_conditions: human PBMCs stimulated with ODN2216 0.3 μM, 14-16 hrs; IFNα2b AlphaLISA read-out
readout: IC50

compound: Cc1nc(N2CCc3c(c(C)nn3CC34CCC(N(C5CCC5)C5CCC5)(CC3)CC4)C2)c2c(n1)c(C)nn2C [compound 28]
IC50: > 10 µM

Recorded result, Cc1c2c(nn1CC13CCC(N)(CC1)CC3)CCN(c1nc(N)nc3c1cnn3C)C2 [compound 14] , IC50: > 9.09 µM

Recorded result, Cc1cc(N2CCc3c(c(C)nn3CC34CCC(N5CCN(C)C(=O)C5)(CC3)CC4)C2)c2cnn(C)c2n1 [Compound No. 104] , IC50: > 10 µM

Recorded result, Cc1nc(N2CCc3c(c(C)nn3CC34CCC(N5CCCC5)(CC3)CC4)C2)c2cn[nH]c2n1 [compound 30] , IC50: > 10 µM

Recorded result, Cc1nc(N2CCc3c(c(C)nn3CC34CCC(N5CC6(COC6)C5)(CC3)CC4)C2)c2c(n1)c(C)nn2C [Compound No. 10] , IC50: > 10 µM

----------
# tested_on: TLR9 (Homo sapiens, UniProt Q9NR96)
# Construct: Fresh blood was collected from normal human donors; endogenous in cells
# Sequence (Q9NR96 26-1032): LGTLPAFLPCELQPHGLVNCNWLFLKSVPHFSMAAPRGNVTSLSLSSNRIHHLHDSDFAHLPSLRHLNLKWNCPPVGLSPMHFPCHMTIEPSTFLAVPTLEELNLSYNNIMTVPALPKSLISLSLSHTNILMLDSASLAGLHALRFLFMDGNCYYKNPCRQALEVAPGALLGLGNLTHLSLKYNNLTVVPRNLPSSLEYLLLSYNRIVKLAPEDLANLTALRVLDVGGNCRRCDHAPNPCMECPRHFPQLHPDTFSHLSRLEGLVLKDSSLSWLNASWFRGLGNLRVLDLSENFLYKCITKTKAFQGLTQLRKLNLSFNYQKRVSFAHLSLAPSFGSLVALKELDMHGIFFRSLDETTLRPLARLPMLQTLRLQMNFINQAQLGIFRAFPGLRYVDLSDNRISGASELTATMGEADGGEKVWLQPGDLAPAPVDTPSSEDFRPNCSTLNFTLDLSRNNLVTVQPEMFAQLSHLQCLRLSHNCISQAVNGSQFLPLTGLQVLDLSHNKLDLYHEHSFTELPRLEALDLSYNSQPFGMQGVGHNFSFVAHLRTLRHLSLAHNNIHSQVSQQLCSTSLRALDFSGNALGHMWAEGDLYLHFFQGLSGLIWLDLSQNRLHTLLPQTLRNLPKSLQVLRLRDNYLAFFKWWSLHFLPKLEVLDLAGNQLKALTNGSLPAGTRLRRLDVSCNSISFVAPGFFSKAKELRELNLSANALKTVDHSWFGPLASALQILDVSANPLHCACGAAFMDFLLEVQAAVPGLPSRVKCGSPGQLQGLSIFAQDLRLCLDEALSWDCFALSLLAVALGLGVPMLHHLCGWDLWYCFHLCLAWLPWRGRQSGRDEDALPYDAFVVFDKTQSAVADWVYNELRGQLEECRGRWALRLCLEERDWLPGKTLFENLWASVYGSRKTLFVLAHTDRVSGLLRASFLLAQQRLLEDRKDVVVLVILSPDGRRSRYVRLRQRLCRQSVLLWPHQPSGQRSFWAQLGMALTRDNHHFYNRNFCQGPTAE
# assay_info: huPBMC TLR9 Antagonist IFNα Assay
# run_conditions: human PBMCs stimulated with ODN2216 0.3 μM, 14-16 hrs; IFNα2b AlphaLISA read-out
readout: IC50 (nM)

Example results:
smiles_str: Cc1cc(N2CCc3c(c(C)nn3CC34CCC(N5C[C@H](C)O[C@@H](C)C5)(CC3)CC4)C2)c2cnn(C)c2n1
readout: IC50
test_result: 1410

smiles_str: Cc1cc(N2CCc3c(c(C)nn3CC34CCC(NCC(C)(C)O)(CC3)CC4)C2)c2cnn(C)c2n1
readout: IC50
test_result: 2230

A: Cc1cc(N2CCc3c(c(C)nn3CC34CCC(N)(CC3)CC4)C2)c2ccncc2n1
B: Cc1cc(N2CCc3c(c(C)nn3CC34CCC(N(C)C)(CC3)CC4)C2)c2cnn(C)c2n1
**Query** Select the item with the higher value of IC50 from the options A and B listed. Write the label of whichever entry you select.
**Result** A
